- System: OVCAR-3 ovarian
- method.summary: NCI tumour cell line growth inhibition, 48 h
We begin with a simple list: items and their reported TGI.
parameter: TGI

[[record]]
compound = "Cc1ccc(S(=O)(=O)CC(=O)CC(=O)C(=O)Nc2cccc(C(F)(F)F)c2)cc1"
assay_system = "OVCAR-3 ovarian"
parameter = "TGI"
result = "> 100 µM"

[[record]]
compound = "COc1ccc2nc3cc(Cl)ccc3c(Nc3ccc(O)c(CN4CCN(C)CC4)c3)c2c1"
assay_system = "OVCAR-3 ovarian"
parameter = "TGI"
result = "3.76 µM"

[[record]]
compound = "OC[C@@H]1CC#C/C=C\\C#CC[C@@H]1CO"
assay_system = "OVCAR-3 ovarian"
parameter = "TGI"
result = "> 100 µM"

[[record]]
compound = "COc1ccc(N2C(=O)/C(=C/c3ccc(N(CCC#N)CCC#N)cc3C)N=C2/C=C\\c2ccccc2)cc1"
assay_system = "OVCAR-3 ovarian"
parameter = "TGI"
result = "> 100 µM"

[[record]]
compound = "CC12OC(CC(O)C1O)n1c3ccccc3c3c4c(c5c6ccccc6n2c5c31)C(=O)N(CCN1CCCC1)C4=O (stereo not given)"
assay_system = "OVCAR-3 ovarian"
parameter = "TGI"
result = "8.95 µM"

[[record]]
compound = "COc1ccc2c(c1)OCC1Cc3cc4c(cc3OC21)OCO4 (stereo not given)"
assay_system = "OVCAR-3 ovarian"
parameter = "TGI"
result = "> 100 µM"

[[record]]
compound = "CN(C)c1ccc(C2SCC(=O)N2c2nc3cc4sc(N5C(=O)CSC5c5ccc(N(C)C)cc5)nc4cc3s2)cc1 (stereo not given)"
assay_system = "OVCAR-3 ovarian"
parameter = "TGI"
result = "> 100 µM"

[[record]]
compound = "COC(=O)C1CC(C(=O)OC)c2nc3cc([N+](=O)[O-])ccc3nc21 (stereo not given)"
assay_system = "OVCAR-3 ovarian"
parameter = "TGI"
result = "> 100 µM"

[[record]]
compound = "CCOC(NC(=O)CC)(C(F)(F)F)C(F)(F)F"
assay_system = "OVCAR-3 ovarian"
parameter = "TGI"
result = "> 100 µM"

[[record]]
compound = "O=C(Cc1csc2nc(-c3ccc(Br)cc3)cn12)N/N=C/c1ccccc1"
assay_system = "OVCAR-3 ovarian"
parameter = "TGI"
result = "46.3 µM"

